# Tested on: Acinetobacter baumannii clinical isolate 9978
# assayName: Rescue concentration, modified checkerboard MIC adjuvant assay
# Assay type: cell-based
# conditionsUsed: A. baumannii clinical isolate 9978; Cef at susceptible breakpoint 8 μg mL^−1
For each entry below, report its Rescue concentration, Cef (8) value.
Answers are plain numbers, in µg/mL.

Brc1ccc(C(c2c[nH]c3cnccc23)c2c[nH]c3cnccc23)cc1 ... 2

Please turn your attention to the following entry.
query: // query Rescue concentration, Cef (8) value for entry Oc1ccc(C(c2c[nH]c3cnccc23)c2c[nH]c3cnccc23)cc1
result: 32

---

# Tested on: Stenotrophomonas maltophilia MDR 7785
# assayName: Rescue concentration, modified checkerboard MIC adjuvant assay
# Type: cell-based
# conditionsUsed: S. maltophilia MDR 7785; Gen at susceptible breakpoint 4 μg mL^−1
# Protocol: Reference microorganisms as well as clinical strains used to evaluate the antimicrobial adjuvant properties of SP-6azaBIM 125 and SP-6azaBIM 136 are listed in Table 3. Clinical strains of bacteria were kindly provided by the Faculty of Medical Sciences, UWI, St. Augustine, Trinidad. […] The antibiotic adjuvant activity of the SPazaBIMs were evaluated in combination with representative antibiotics (representing 13 antibiotic classes) against the 19 pathogens strains listed in Table 3. […]
quantityMeasured: Rescue concentration, Gen (4) (µg/mL)
One number for each entry, in µg/mL.

Brc1ccc(C(c2c[nH]c3cnccc23)c2c[nH]c3cnccc23)cc1 ... 8

Next compound, please.
query: Returns the measured Rescue concentration, Gen (4) for the input compound. Input: Oc1ccc(C(c2c[nH]c3cnccc23)c2c[nH]c3cnccc23)cc1
result: 64

---

# System: Escherichia coli ATCC 35150
# assayName: Rescue concentration, modified checkerboard MIC adjuvant assay
# Format: cell-based
# conditionsUsed: E. coli ATCC 35150; Imi at susceptible breakpoint 1 μg mL^−1
quantityMeasured: Rescue concentration, Imi (1) (µg/mL)
Numbers only, in µg/mL.

Below, each entry is followed by its recorded Rescue concentration, Imi (1) result.
Oc1ccc(C(c2c[nH]c3cnccc23)c2c[nH]c3cnccc23)cc1 ... 4
Brc1ccc(C(c2c[nH]c3cnccc23)c2c[nH]c3cnccc23)cc1 ... 4

Query molecule follows.
query: Find the recorded Rescue concentration, Imi (1) belonging to Oc1ccc(C(c2c[nH]c3ncccc23)c2c[nH]c3ncccc23)cc1 and report it.
result: 64

---

# System: MRSA
# assayName: Rescue concentration of substituted phenyl azaindole derivatives
# Type: cell-based, Staphylococcus aureus
# conditionsUsed: Amoxicillin fixed at 2 μg/mL
Could you mark each record Met if its Rescue concentration, MRSA Amoxicillin (2 μg/mL) falls strictly under 30 µg/mL, and Not met if it equals or exceeds it?

Past entries and their recorded results:
O=[N+]([O-])c1ccc(C(O)c2c[nH]c3ncc(F)cc23)cc1 (stereo not drawn) ... Met
O=[N+]([O-])c1ccc(C(O)c2c[nH]c3ncccc23)cc1 (stereo not drawn) ... Not met
Oc1ccc(C(O)c2c[nH]c3cnc(Cl)cc23)cc1 (stereo not drawn) ... Met
OC(c1ccc(Br)cc1)c1c[nH]c2c(Cl)nccc12 (stereo not drawn) ... Met
O=[N+]([O-])c1ccc(C(O)c2c[nH]c3c(Cl)nccc23)cc1 (stereo not drawn) ... Met
O=Cc1cccc(C(O)c2c[nH]c3c(Cl)nccc23)c1 (stereo not drawn) ... Not met

query: Is 30 µg/mL strictly greater than the compound's reported Rescue concentration, MRSA Amoxicillin (2 μg/mL)? compound: O=[N+]([O-])c1ccccc1C(O)c1c[nH]c2ncccc12 (stereo not drawn)
result: Not met

query: Here's an entry: Oc1ccc(C(c2c[nH]c3cnc(Cl)cc23)c2c[nH]c3cnc(Cl)cc23)cc1 . Is its Rescue concentration, MRSA Amoxicillin (2 μg/mL) below 30 µg/mL?
result: Met

query: Strictly below 30 µg/mL in Rescue concentration, MRSA Amoxicillin (2 μg/mL)? Oc1ccc(C(O)c2c[nH]c3cnccc23)cc1 (stereo not drawn)
result: Not met

query: I'd appreciate it if you could check whether O=[N+]([O-])c1ccc(C(O)c2c[nH]c3cnccc23)cc1 (stereo not drawn) has Rescue concentration, MRSA Amoxicillin (2 μg/mL) smaller than 30 µg/mL.
result: Not met

---

Could you please report measured Rescue concentration, Cip (0.25) for the items listed next?
# Tested on: Escherichia coli ATCC 35150
# assayName: Rescue concentration, modified checkerboard MIC adjuvant assay
# Format: cell-based
# conditionsUsed: E. coli ATCC 35150; Cip at susceptible breakpoint 0.25 μg mL^−1
Answers are plain numbers, in µg/mL.

Provide the reported Rescue concentration, Cip (0.25) of each entry below, same order.
1. Oc1ccc(C(c2c[nH]c3cnccc23)c2c[nH]c3cnccc23)cc1
2. Brc1ccc(C(c2c[nH]c3cnccc23)c2c[nH]c3cnccc23)cc1

result:
1. 16
2. 8

---

# Tested on: Enterobacter cloacae ATCC BAA-1143
# assayName: Rescue concentration, modified checkerboard MIC adjuvant assay
# Format: cell-based
# conditionsUsed: E. cloacae ATCC BAA-1143; Amp at susceptible breakpoint 8 μg mL^−1
quantityMeasured: Rescue concentration, Amp (8)

Worked cases, answers included:
Brc1ccc(C(c2c[nH]c3cnccc23)c2c[nH]c3cnccc23)cc1 ... 32 µg/mL
Brc1ccc(C(c2c[nH]c3ncccc23)c2c[nH]c3ncccc23)cc1 ... 128 µg/mL
Oc1ccc(C(c2c[nH]c3cnccc23)c2c[nH]c3cnccc23)cc1 ... 16 µg/mL

Would you kindly look at the next entry?
query: May I ask what Rescue concentration, Amp (8) has been recorded for Oc1ccc(C(c2c[nH]c3ncccc23)c2c[nH]c3ncccc23)cc1 ?
result: 64 µg/mL

---

# System: MRSA
# assayName: Rescue concentration of substituted phenyl azaindole derivatives
# Assay type: cell-based, Staphylococcus aureus
# conditionsUsed: Amoxicillin fixed at 2 μg/mL
# Procedure: The antibiotic adjuvant activity of the SPazaBIMs were evaluated in combination with representative antibiotics (representing 13 antibiotic classes) against the 19 pathogens strains listed in Table 3. To assess the adjuvant properties of the SP-azaBIM molecules, a modified checkerboard minimum inhibitory concentration assay was used. […] Antibiotic susceptible breakpoint concentrations for the respective bacteria were determined using Clinical Laboratory Standards Institute (CLSI) criteria M100 ED31. […]
quantityMeasured: Rescue concentration, MRSA Amoxicillin (2 μg/mL) (µg/mL)
Answers are plain numbers, in µg/mL.

The examples below pair each entry with its known result.
Oc1ccc(C(O)c2c[nH]c3ncccc23)cc1 (stereo not drawn) ... 128
O=[N+]([O-])c1ccccc1C(O)c1c[nH]c2cnccc12 (stereo not drawn) ... 256
OC(c1ccc(Br)cc1)c1c[nH]c2ncc(Cl)cc12 (stereo not drawn) ... 8
OC(c1ccc(Br)cc1)c1c[nH]c2cnc(Cl)cc12 (stereo not drawn) ... 0.5
Brc1ccc(C(c2c[nH]c3cnccc23)c2c[nH]c3cnccc23)cc1 ... 0.5
Nc1ccc(C(O)c2c[nH]c3cnccc23)cc1 (stereo not drawn) ... 8
O=Cc1cccc(C(O)c2c[nH]c3cnccc23)c1 (stereo not drawn) ... 64
Oc1ccc(C(O)c2c[nH]c3ncc(F)cc23)cc1 (stereo not drawn) ... 16

Here is another molecule to look at.
query: Reported Rescue concentration, MRSA Amoxicillin (2 μg/mL), molecule O=[N+]([O-])c1cccc(C(O)c2c[nH]c3ncc(F)cc23)c1 (stereo not drawn) : ____
result: 128

---

# Test system: Pseudomonas aeruginosa MDR 5805
# assayName: Rescue concentration, modified checkerboard MIC adjuvant assay
# Assay type: cell-based
# conditionsUsed: P. aeruginosa MDR 5805; Pol B at susceptible breakpoint 2 μg mL^−1
quantityMeasured: Rescue concentration, Pol B (2)

Oc1ccc(C(c2c[nH]c3cnccc23)c2c[nH]c3cnccc23)cc1 [SP-6azaBIM 136] ... 4 µg/mL
Brc1ccc(C(c2c[nH]c3cnccc23)c2c[nH]c3cnccc23)cc1 [SP-6azaBIM 125] ... >128 µg/mL
Brc1ccc(C(c2c[nH]c3ncccc23)c2c[nH]c3ncccc23)cc1 [SP-7azaBIM 126] ... >128 µg/mL

query: For the compound shown here, Oc1ccc(C(c2c[nH]c3ncccc23)c2c[nH]c3ncccc23)cc1 [SP-7azaBIM 135] , give the reported Rescue concentration, Pol B (2).
result: >128 µg/mL

---

Consider the following compounds; for each one, report its Rescue concentration, Ceph (8).
# Test system: Stenotrophomonas maltophilia MDR 7785
# assayName: Rescue concentration, modified checkerboard MIC adjuvant assay
# Assay type: cell-based
# conditionsUsed: S. maltophilia MDR 7785; Ceph at susceptible breakpoint 8 μg mL^−1
Give bare numbers, in µg/mL.

Quick batch: Rescue concentration, Ceph (8) for everything below.
1. Oc1ccc(C(c2c[nH]c3cnccc23)c2c[nH]c3cnccc23)cc1 [SP-6azaBIM 136]
2. Brc1ccc(C(c2c[nH]c3cnccc23)c2c[nH]c3cnccc23)cc1 [SP-6azaBIM 125]

result:
64
8
